system: human LPAR1 (Homo sapiens, UniProt Q92633)
Construct: host or cells: TangoEDG2-bla U2OS cells
Sequence (Q92633 whole entry): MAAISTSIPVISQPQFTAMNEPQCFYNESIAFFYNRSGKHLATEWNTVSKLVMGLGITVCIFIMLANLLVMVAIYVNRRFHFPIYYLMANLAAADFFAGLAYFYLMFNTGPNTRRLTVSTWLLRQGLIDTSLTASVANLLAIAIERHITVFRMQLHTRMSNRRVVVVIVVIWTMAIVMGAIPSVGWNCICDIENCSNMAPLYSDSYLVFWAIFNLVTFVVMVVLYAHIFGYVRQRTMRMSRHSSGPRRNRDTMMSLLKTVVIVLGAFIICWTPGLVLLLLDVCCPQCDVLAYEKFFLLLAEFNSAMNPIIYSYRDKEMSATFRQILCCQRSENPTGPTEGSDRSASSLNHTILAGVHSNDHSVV
procedure.text: Arrestin assay (Arrestin Reporter EDG2-bla U2OS), inhibition of LPA-stimulated signal
Format: cell-based
assay.context: TangoEDG2-bla U2OS cells expressing human LPAR1; 0.25 μM LPA; read-out: Arrestin Reporter EDG2-bla U2OS Human Merged IC50
readout.label: IC50 (nM)
Give the value, in units of nM, as a plain number.

CCOC[C@H](CN1CCC(C(=O)Nc2ccc(Cl)cc2OC(F)F)(n2nccc2C(C)C)CC1)C(=O)O    16.6
COCCC(=O)N1CCC(CN2CCC(C(=O)Nc3ccc(Cl)cc3OC(F)F)(n3nccc3C(C)C)CC2)(C(=O)O)CC1    56.5
CC(C)c1ccnn1C1(C(=O)Nc2ccc(Cl)cc2OC(F)F)CCN(C[C@@H](C(=O)O)[C@@H]2CCOC2)CC1 (single isomer, unassigned)    75

Query string: # get_value(readout='IC50', item= `CC(C)c1ccnn1C1(C(=O)Nc2ccc(Cl)cc2OC(F)F)CCN(CC2(C(=O)O)CCN(C(=O)O[C@H]3CCOC3)CC2)CC1` )
Result string: 94.9

Query string: # get_value(readout='IC50', item= `CC(C)c1ccnn1C1(C(=O)Nc2ccc(Cl)cc2OC(F)F)CCN(C[C@H](C(=O)O)[C@H]2CCOC2)CC1` )
Result string: 50.4

Query string: # get_value(readout='IC50', item= CC(C)c1ccnn1C1(C(=O)Nc2ccc(Cl)cc2OC(F)F)CCN([C@H]2CC[C@H](C(=O)O)OC2)CC1 (single isomer, unassigned) )
Result string: 65.6
